Target Entity: α1β1γδ nAChR (Mus musculus, UniProt P02716+P04756+P04760+P09690)
Construct: expressed in transfected cells; host or cells: Xenopus laevis oocytes injected with cRNA
Sequence (P04756 21-457): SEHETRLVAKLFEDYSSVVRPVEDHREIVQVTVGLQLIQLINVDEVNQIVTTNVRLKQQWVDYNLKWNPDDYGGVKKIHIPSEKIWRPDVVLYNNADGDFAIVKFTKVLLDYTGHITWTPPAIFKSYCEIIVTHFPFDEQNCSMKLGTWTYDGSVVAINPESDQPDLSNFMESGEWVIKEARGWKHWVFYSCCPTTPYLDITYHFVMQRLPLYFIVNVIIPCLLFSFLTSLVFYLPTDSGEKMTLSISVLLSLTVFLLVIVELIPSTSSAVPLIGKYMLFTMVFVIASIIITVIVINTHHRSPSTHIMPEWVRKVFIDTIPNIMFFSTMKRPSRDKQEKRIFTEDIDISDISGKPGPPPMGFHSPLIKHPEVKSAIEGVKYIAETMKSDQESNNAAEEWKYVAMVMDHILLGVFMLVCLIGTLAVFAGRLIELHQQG
Sequence (P09690 24-501): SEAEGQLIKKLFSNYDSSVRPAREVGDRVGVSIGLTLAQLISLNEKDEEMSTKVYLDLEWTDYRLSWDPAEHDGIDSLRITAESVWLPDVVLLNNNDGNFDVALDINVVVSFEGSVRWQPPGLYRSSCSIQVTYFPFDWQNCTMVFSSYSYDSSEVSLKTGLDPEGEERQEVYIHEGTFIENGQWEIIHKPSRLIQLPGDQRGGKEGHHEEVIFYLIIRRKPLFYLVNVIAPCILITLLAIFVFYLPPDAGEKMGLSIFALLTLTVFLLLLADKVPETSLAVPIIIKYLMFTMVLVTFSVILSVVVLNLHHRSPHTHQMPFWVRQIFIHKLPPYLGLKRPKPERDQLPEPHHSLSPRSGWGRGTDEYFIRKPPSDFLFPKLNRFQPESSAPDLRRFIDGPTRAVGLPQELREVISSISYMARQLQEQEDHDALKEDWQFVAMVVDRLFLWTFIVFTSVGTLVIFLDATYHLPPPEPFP
Sequence (P04760 23-519): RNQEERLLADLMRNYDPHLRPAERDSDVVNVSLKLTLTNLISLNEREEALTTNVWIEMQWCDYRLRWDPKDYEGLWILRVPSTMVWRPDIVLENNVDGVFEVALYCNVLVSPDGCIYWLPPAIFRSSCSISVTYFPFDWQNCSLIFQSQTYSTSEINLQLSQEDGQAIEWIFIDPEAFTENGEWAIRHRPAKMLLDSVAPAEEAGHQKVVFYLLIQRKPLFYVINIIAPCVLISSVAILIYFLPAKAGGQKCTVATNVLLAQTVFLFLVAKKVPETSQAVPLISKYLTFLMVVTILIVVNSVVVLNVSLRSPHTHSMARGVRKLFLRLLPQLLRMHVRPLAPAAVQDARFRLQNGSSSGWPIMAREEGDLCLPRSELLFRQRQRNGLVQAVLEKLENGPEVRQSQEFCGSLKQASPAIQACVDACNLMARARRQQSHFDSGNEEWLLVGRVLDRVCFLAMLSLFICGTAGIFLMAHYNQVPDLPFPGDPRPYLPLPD
Sequence (P02716 25-520): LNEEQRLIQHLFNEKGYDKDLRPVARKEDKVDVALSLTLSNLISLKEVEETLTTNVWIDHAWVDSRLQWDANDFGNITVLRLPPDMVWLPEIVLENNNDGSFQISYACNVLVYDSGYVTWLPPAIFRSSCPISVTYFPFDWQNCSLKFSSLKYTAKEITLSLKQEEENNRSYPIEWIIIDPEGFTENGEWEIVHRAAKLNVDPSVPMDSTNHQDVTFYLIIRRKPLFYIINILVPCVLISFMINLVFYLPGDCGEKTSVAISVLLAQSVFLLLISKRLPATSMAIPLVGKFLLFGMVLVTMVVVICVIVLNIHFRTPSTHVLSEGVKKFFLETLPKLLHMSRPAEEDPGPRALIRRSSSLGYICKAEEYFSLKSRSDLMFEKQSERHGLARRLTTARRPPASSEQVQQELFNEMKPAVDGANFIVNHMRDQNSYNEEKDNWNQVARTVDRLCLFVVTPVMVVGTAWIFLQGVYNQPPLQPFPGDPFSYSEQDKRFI
Protocol Summary: cell-based
Assay type: cell-based
Experimental Parameters: IC50 (95% CI), Peak, α1β1γδ, VH −60 mV, peak current, ACh 10 μM
Assign pIC50 to each entry below.
Give bare numbers, as −log10 of the molar value.

# Structure Smiles String, Target Entity, pIC50
rows = [
    ("CCCC(=O)N[C@@H](Cc1ccc(O)cc1)C(=O)NCCCNCCCCNCCCN", "α1β1γδ nAChR (Mus musculus, UniProt P02716+P04756+P04760+P09690)", 4.57),
]

Kindly consider the entry below.
Field pIC50 (entry CCCC(=O)N[C@@H](Cc1ccc(O)cc1)C(=O)NCCCCCCCCCCCCN ) reads 5.50
